These data points were gathered from patent US20210403579A1.

- testedTarget: T1, Human ST2 (human, UniProt Q01638 19-328, limits assumed)
- T1 construct: also called human ST2 protein; Interleukin 1 receptor-like 1
- T1 sequence (looked up): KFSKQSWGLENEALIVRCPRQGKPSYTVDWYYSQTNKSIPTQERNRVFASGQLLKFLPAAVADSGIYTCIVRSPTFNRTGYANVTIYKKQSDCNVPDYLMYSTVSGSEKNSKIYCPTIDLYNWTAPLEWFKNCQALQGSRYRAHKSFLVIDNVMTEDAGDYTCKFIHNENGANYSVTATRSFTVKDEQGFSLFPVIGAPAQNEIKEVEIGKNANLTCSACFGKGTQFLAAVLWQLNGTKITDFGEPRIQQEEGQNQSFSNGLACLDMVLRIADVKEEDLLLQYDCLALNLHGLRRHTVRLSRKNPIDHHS
- assayProcedure: SPR (Carterra), antibody immobilized, ST2 analyte, 1:1
metric: Kd (nM)

[[record]]
binder = "Human ST2 IgG1 Antibody 108 (antibody, V domains shown, IgG1, kappa; also called ST2 Antibody 108) VH: QVQLVQSGAEVKKPGASVKVSCKASGNTFTAYYMHWVRQAPGQGLEWMGIINPSGGSTSYAQKFQGRVTMTRDTSTSTVYMELSSLRSEDTAVYYCARGVGATNYWGQGTLVTVSS VL: DIQMTQSPSSLSASVGDRVTITCRASQGISNNLNWYQQKPGKAPKLLIYAASSLQSGVPSRFSGSGSGTDFTLTISSLQPEDFATYYCQQGFNFPLTFGGGTKVEIKR"
observed = 28

[[record]]
binder = "Human ST2 IgG1 Antibody 103 (antibody, V domains shown, IgG1, kappa; also called ST2 Antibody 103) VH: QVQLVQSGAEVKKPGASVKVSCKASGYTFTSYYMHWVRQAPGQGLEWMGWMNPNSGNTGYAQKFQGRVTMTRDTSTSTVYMELSSLRSEDTAVYYCARETSFDYYYGMDVWGQGTTVTVSS VL: DIQMTQSPSSLSASVGDRVTITCRASQSISNWLAWYQQKPGKAPKLLIYDGSNLGTGVPSRFSGSGSGTDFTLTISSLQPEDFATYYCLQDFTYPLTFGGGTKVEIKR"
observed = 140

[[record]]
binder = "Human ST2 IgG1 Antibody 106 (antibody, V domains shown, IgG1, kappa) VH: QVQLVQSGAEVKKPGSSVKVSCKASGYTFTDYYIHWVRQAPGQGLEWMGGIIPIYGTANYAQKFQGRVTITADESTSTAYMELSSLRSEDTAVYYCARTNWGMDVWGQGTTVTVSS VL: EIVMTQSPATLSVSPGERATLSCRASQGIPSNSLAWYQQKPGQAPRLLIYGTSARASGIPARFSGSGSGTEFTLTISSLQSEDFAVYYCQQYYSTPWTFGQGTKVEIKR"
observed = 616

[[record]]
binder = "Human ST2 IgG1 Antibody 107 (antibody, V domains shown, IgG1, kappa) VH: QVQLVQSGAQVKKPGASVKVSCKASGGTFSSYTISWVRQAPGQGLEWMGVIYPSGDITVYAQEFQGRVTMTRDTSTSTVYMELSSLRSEDTAVYYCARAWARYFDYWGQGTLVTVSS VL: DIQMTQSPSSLSASVGDRVTITCQASQDISNYLNWYQQKPGKAPKLLIYDASNLQAGVPSRFSGSGSGTDFTLTISSLQPEDFATYYCQQSYSSPITFGQGTRLEIKR"
observed = 465

[[record]]
binder = "Human ST2 IgG1 Antibody 101 (antibody, V domains shown, IgG1, kappa; also called ST2 Antibody 101) VH: QVQLVQSGAEVKKPGASVKVSCKASGYTFSTYDINWVRQAPGQGLEWVGIISPSGGWTTYAQKFQGRVTMTRDTSTSTVYMELSSLRSEDTAVYYCARVNYDILTGQGRGYYFDYWGQGTLVTVSS VL: DIQMTQSPSSLSASVGDRVTITCQATQDIADYLNWYQQKPGKAPKLLIYKASSLESGVPSRFSGSGSGTDFTLTISSLQPEDFATYYCQQSYSTPTFGPGTKVDIKR"
observed = 590

